Origin of measurements: patent US20220073643A1

Target: human Claudin18.2 (human)
Experiment: cell-based or functional assay
Each entry below carries its reported CDC EC50.
Use µg/mL as the unit, but write only the number.

Below, each entry is followed by its recorded CDC EC50 result.
[
  {
    "Binder": "chimeric 393C2C5 (antibody, human IgG1, kappa, V domains shown, chimeric, human IgG1/kappa constant regions; also called 393C2C5A) VH: DVQLVESGGGLVQPGGSRKLSCAASGFTFSSFGMHWVRQAPEKGLEWVAYISSGSSPIYYADTVKGRFTISRDNPKNTLFLQMTSLRSEDTAMYFCATFYYGNSFAYWGQGTLVTVSA VL: DIVMTQSPSSLTVTAGEKVTMSCKSSQTLLNSGNQKNYLTWYQQKSGQPPKLLIYWASTRESGVPDRFTGSGSGTDFTLTISSVQAEDLAVYYCQNAYSYPVTFGSGTKVELKR",
    "CDC EC50 (µg/mL)": 0.105
  },
  {
    "Binder": "chimeric 253E4F7 (antibody, human IgG1, kappa, V domains shown, chimeric, human IgG1/kappa constant regions) VH: EIQLQQSGPELMKPGASVKMSCKASGYSFTSYYIHWVKQSHGKSLEWIGYIDPFNGGTRYNQKFEGKATLTVDKSSTTAYMHLSSLTSEDSTVYYCASLRFLAYWGQGTLVTVSA VL: DIVMTQSPSSLTVTAGEKVTMTCKSSQSLLNSGNQKNYLTWYQQKPGQPPKVLISRASTRQSGVPDRFTGSGSGTDFTLTISSVQAEDLAVYYCQNDYSYPLTFGAGTKLELKR",
    "CDC EC50 (µg/mL)": 0.205
  }
]

Data request: // lookup CDC EC50 for chimeric 257B1G9 (antibody, human IgG1, kappa, V domains shown, chimeric, human IgG1/kappa constant regions) VH: QAYLQQSGAELVRSGASVKMSCKASGYTFTSHNMHWVKQTPGQGLEWIGYIYPGNGGTNYNQKFKGKATLTADTSSSTAYMQISSLTSEDSAVYFCTRDYYGNSFAYWGQGTLVTVSA VL: DIVMTQSPSSLTERAGERVSMSCKSSQSLFNSGNQKNYLTWYQQKPGQPPKLLIYWASTRESGVPDRFTGSGSGTDFTLTISSVQAEDLAVYYCQNDYRYPFTFGAGTKLELKR
Data returned: 0.358
